The reported measurements were obtained from patent US11254745.

Below is a list of entries, each paired with its recorded koff value.
- tested system: T1, extracellular domain of hCD4 fused with a histidine tag (hCD4-HisTag) (human, UniProt P01730 26-396)
- T1 construct: extracellular domain; also called human CD4-HisTag; not shown: histidine tag
- measurement protocol: Biacore T200 SPR, antibody captured on Protein A, CD4-HisTag analyte, 1:1 fit, 25 C

binder	koff
Chimeric 29B7 anti-CD4 antibody (antibody, human IgG1, kappa, V domains shown) VH: QVQLQQSGAELAKPGASVKMSCKTSADSLNTHWMHWVKQRPGQGLEWIGYINPYTGSGEYSQKFKGKATLTADISSSTAYMQLISLTSEDSAVYYCAYDSTGAMDYWGQGTSVTVSS VL: DIKMTQSPSSMYASLGERITITCKASQDINRYLSWFQQKPGKSPKTPIYRADRSVDGVPSRFSGSGSGQDYSLTISSLEYEDMGIYYCQQYDEFPYTFGGGTKLEIKR	5.98e-05 s⁻¹
2B6 humanized anti-CD4 antibody (antibody, V domains shown, Expressed as heavy and light chains in Freestyle 293 cells; also called Humanized 2B6) VH: QVQLQESGPGLVKPSETLSLTCTVSGDSITSGYWNWIRQPPGKGLEFLGYISFADTTNYNPSLKSRVTISRDTSKNQFSLKLSSVTAADTAVYYCARDDYGYYAMDYWGQGTLVTVSS VL: DIQLTQSPSSLSASVGDRVTITCRASQDIDNYLNWYQQKPGKAPKLLIYYTSRLHSGVPSRFSGSGSGTDYTLTISSLQPEDFATYYCQQGNTLPTFGQGTKLEIK	7.89e-05 s⁻¹
Chimeric 10C2 anti-CD4 antibody (antibody, human IgG1, kappa, V domains shown) VH: EVKLQQSGTELMKPGASVKISCKATGYTFSSYWIEWIKQRPGRGLEWIGEILPGSGSTNYNEEFTGRATFTADTFSNTAYMQLSSLTSEDSAVYYCARSVSASNWYFDVWGAGTTVTVSS VL: DIVMTQSPASLAVSLGQRATISCRASQSVSTSSYSYMHWYQQKPGQPPKFLIKYASNLESGVPARFSGSGSGTDFTLNIHPVEEEDTATYYCQHSWEIPPTFGGGTKLEIKR	0.00019 s⁻¹
